ASSAY NOTES: Adsorption kinetic model fitting of the five components on the carrier
Assay type: physicochemical
Everything with Qe, pseudo-first order lower than 5 mg/g is 0; everything else, including exactly 5 mg/g, is 1.

Incoming: Entry O=C(/C=C/c1ccc(O)c(O)c1)O[C@H](Cc1ccc(O)c(O)c1)C(=O)O : is its Qe, pseudo-first order no less than 5 mg/g?
Outgoing: 1

Incoming: Next record, please: Cc1coc2c1C(=O)C(=O)c1c-2ccc2c1CCCC2(C)C
Outgoing: 0

Incoming: # repeat for Cc1coc2c1C(=O)C(=O)c1c-2ccc2c(C)cccc12
Outgoing: 0

Incoming: Consider next the compound C[C@H]1COC2=C1C(=O)C(=O)c1c2ccc2c1CCCC2(C)C in the same way.
Outgoing: 0

More entries:
Incoming: Qe, pseudo-first order >= 5 mg/g for O=C(/C=C/c1ccc(O)c2c1[C@H](C(=O)O[C@H](Cc1ccc(O)c(O)c1)C(=O)O)[C@@H](c1ccc(O)c(O)c1)O2)O[C@H](Cc1ccc(O)c(O)c1)C(=O)O ?
Outgoing: 1
